Target of assay: human sodium channels Nav 1.7 (Homo sapiens (Human), UniProt Q15858)
Sequence (Q15858 whole entry): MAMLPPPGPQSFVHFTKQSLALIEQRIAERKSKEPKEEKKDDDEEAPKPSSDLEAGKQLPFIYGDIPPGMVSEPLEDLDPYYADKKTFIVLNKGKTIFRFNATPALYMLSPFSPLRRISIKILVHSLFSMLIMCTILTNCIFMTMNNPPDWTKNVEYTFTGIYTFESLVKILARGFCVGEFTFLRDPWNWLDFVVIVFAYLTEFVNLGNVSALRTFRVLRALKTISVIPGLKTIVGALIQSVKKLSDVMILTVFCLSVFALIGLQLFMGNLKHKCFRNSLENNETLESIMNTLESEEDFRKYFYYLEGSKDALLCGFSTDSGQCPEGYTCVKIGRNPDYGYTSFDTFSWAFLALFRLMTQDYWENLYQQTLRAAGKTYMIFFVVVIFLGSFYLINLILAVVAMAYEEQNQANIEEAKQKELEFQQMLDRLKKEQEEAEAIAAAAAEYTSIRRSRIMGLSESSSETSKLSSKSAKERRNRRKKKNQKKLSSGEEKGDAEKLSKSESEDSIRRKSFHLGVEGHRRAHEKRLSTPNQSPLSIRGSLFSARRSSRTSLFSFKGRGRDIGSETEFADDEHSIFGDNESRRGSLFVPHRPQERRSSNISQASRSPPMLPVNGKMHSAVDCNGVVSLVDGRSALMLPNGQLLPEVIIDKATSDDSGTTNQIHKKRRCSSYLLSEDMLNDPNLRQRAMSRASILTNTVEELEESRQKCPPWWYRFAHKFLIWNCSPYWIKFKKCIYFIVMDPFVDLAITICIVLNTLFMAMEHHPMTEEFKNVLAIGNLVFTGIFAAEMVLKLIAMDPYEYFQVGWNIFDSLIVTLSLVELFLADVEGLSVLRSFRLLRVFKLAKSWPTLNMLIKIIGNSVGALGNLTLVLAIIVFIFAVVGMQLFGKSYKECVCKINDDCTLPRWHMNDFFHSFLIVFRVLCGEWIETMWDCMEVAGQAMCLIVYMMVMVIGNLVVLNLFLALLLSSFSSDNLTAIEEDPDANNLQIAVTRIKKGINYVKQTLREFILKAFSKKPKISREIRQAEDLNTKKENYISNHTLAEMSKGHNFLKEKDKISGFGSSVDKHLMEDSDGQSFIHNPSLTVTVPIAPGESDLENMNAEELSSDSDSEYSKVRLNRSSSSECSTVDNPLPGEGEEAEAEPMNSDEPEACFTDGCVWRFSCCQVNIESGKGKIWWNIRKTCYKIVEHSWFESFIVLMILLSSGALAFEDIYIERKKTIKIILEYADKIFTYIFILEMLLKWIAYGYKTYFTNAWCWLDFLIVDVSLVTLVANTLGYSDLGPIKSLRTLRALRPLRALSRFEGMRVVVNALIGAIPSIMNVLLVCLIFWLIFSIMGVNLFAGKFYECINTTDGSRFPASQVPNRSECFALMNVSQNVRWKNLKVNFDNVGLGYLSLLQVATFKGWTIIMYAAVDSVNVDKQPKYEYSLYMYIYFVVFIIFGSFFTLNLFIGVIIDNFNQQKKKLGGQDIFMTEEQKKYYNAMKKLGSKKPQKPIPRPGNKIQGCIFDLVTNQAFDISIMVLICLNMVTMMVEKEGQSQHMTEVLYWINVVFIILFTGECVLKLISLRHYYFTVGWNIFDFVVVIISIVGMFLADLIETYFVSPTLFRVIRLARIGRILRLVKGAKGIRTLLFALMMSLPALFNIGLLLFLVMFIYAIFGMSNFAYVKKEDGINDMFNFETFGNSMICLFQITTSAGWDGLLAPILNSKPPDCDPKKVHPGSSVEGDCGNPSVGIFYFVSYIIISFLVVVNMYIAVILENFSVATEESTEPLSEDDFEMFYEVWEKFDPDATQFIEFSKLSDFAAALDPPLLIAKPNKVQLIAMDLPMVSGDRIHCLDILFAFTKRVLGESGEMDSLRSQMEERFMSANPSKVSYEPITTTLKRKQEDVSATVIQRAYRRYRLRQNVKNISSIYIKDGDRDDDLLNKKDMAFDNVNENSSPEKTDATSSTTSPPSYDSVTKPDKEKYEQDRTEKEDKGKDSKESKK
Test name: Automated whole-cell voltage-clamp (ScreenPatch 384P), Nav 1.7 sodium current, Protocol 1
Assay type: cell-based
Condition details: Protocol 1 (holding −90 mV, 0.1 Hz); CHO cells expressing human Nav 1.7; room temperature; read-out: Nav1.7 IC50
Measured parameter: IC50

COc1cc(/C=N/NC(=O)c2ccnc(-c3ccc(OC4CCCC4)cc3)n2)cc(OC)c1; > 10 µM
COc1cc(/C=N/NC(=O)c2cc(-c3ccc(OC(C)C)cc3)ccn2)cc(OC)c1; > 10 µM
CC(C)Oc1ccc(-c2ccc(C(=O)N/N=C/c3cccs3)o2)cc1; > 16.7 µM

QUERY: Give the measured IC50 for COc1cc(/C=N/NC(=O)c2cc(-c3ccc(OC4CCCC4)cc3)ccn2)cc(OC)c1
RESULT: > 10 µM

QUERY: Dear colleague, please send me the reported IC50 for COc1cc(/C=N/N(C)C(=O)c2ccc(-c3ccc(Cl)cc3)o2)cc(OC)c1 when you can.
RESULT: > 30 µM

QUERY: Kindly indicate its recorded IC50. Item: COc1cc(/C=N/NC(=O)c2ccnc(-c3ccc(OC(F)(F)F)cc3)n2)cc(OC)c1
RESULT: > 10 µM

QUERY: # return recorded IC50 for input O=C(N/N=C/c1cccs1)c1cc(-c2ccc(OC3CCCC3)cc2)ccn1
RESULT: > 10 µM

----------
Target of assay: human sodium channels Nav 1.7 (Homo sapiens (Human), UniProt Q15858)
Test name: Automated whole-cell voltage-clamp (ScreenPatch 384P), Nav 1.7 sodium current, Protocol 2
Assay type: cell-based
Condition details: Protocol 2 (holding −100 mV, inactivation step −40 mV 8 s, 0.05 Hz); CHO cells expressing human Nav 1.7; read-out: Nav1.7 IC50
Measured parameter: IC50 (nM)

CCOc1ccc(-c2ccnc(C(=O)N/N=C/c3cc(OC)cc(OC)c3)n2)cc1; 651

(P) COc1cc(/C=N/NC(=O)c2nccc(-c3ccc(OC(F)(F)F)cc3)n2)cc(OC)c1
(Q) CCOc1ccc(-c2cccc(C(=O)N/N=C/c3cc(OC)cc(OC)c3)n2)cc1
QUERY: Two entries are listed, P and Q . Which one carries the higher IC50? Use the label to indicate which entry you chose.
RESULT: Q

----------
Target of assay: human sodium channels Nav 1.8 (Homo sapiens (Human))
Sequence (Q9Y5Y9 whole entry): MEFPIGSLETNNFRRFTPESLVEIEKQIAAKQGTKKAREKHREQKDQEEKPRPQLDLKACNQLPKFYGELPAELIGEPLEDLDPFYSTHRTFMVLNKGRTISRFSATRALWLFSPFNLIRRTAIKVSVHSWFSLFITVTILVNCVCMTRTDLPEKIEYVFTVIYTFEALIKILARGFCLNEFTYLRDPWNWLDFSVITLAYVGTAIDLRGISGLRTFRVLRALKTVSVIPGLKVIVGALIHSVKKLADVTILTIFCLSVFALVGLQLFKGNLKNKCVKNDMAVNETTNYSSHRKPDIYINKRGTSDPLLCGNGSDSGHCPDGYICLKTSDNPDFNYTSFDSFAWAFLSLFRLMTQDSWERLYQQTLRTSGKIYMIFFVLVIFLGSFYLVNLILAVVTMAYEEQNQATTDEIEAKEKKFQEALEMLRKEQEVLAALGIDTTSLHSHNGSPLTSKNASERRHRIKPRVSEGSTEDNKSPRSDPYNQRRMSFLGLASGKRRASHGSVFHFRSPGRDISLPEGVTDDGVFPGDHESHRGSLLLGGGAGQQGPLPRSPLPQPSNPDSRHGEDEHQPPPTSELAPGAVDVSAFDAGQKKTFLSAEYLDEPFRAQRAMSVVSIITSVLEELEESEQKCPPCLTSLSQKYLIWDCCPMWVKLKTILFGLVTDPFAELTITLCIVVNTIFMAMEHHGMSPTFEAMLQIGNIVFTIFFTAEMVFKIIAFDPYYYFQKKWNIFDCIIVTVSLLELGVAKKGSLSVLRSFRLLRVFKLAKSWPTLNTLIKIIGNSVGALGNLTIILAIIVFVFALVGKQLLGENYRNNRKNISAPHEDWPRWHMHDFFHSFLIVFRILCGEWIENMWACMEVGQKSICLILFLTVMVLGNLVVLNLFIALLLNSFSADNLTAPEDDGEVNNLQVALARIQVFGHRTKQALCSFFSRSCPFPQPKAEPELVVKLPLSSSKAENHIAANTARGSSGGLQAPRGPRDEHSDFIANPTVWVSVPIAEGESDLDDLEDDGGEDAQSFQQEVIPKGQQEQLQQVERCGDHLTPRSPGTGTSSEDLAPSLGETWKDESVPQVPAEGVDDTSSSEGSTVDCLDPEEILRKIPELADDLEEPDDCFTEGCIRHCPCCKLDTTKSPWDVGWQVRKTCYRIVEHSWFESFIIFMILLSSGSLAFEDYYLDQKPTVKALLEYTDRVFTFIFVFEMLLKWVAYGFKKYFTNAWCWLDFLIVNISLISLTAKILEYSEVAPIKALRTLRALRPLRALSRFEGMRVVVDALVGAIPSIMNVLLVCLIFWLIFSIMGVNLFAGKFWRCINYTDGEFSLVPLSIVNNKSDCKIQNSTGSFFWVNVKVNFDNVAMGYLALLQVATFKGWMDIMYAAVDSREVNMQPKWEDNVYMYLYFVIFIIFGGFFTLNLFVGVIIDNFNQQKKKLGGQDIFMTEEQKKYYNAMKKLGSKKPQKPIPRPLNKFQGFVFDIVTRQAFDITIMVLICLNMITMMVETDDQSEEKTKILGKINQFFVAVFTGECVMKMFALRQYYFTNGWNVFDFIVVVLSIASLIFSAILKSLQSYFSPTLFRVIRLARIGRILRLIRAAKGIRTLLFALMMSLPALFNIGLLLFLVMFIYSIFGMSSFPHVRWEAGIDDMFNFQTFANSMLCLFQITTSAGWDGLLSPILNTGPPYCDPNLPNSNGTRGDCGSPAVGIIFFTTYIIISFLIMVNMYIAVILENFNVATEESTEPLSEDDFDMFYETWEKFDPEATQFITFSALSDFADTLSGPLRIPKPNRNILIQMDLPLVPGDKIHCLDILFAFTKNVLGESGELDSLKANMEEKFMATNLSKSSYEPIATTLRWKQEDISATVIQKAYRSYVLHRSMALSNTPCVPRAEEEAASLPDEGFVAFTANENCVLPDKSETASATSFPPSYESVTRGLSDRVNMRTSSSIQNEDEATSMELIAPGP
Test name: Automated whole-cell voltage-clamp (ScreenPatch 384P), Nav 1.8 sodium current, Protocol 1
Type: cell-based
Condition details: Protocol 1 (holding −90 mV, 0.1 Hz); CHO cells expressing human Nav 1.8; room temperature; read-out: Nav1.8 IC50
pIC50: −log10 of the molar value.
Measured parameter: pIC50

See these solved cases before continuing.
CCCOc1ccc(-c2cc(C(=O)N/N=C/c3cc(OC)cc(OC)c3)ccn2)cc1 [Compound 30]; < 5.00
CCCOc1ccc(-c2cncc(C(=O)N/N=C/c3cc(OC)cc(OC)c3)c2)cc1 [Compound 26]; < 5.00
COc1cc(/C=N/NC(=O)c2cc(-c3ccc(Cl)cc3)ccn2)cc(OC)c1 [Compound 42]; < 5.00

QUERY: Output measured pIC50 for this item: COc1cc(/C=N/NC(=O)c2cccc(-c3ccc(OC(C)C)cc3)n2)cc(OC)c1 [Compound 24]
RESULT: 5.23
